# measuredTarget: AMP-activated protein kinase, AMPK (Homo sapiens) (UniProt P54646+O43741+P54619+Q9UGJ0+Q9Y478+Q13131+Q9UGI9)
# procedureSummary: AMP-dependent Kinase enzyme assay. An in vitro enzyme assay that detects ADP turnover that is directly proportional to AMPK activity. This uses naive AMPK that is activated during the assay with MK-8722
# Format: functional
# Design: scale not given: direction of the effect not stated beside the values
# runParameters: 30 µM
propertyName: Percent Effect (%)
The figure you give is taken to be in %; do not add the unit.

INPUT: Param item = `O=C(Cn1ccc2ncccc2c1=O)N1CCSCC1` ; retrieve measured Percent Effect.
OUTPUT: -4.34

INPUT: Same thing, different compound: CCC1COCCN1C(=O)NCc1nccn1CC(C)C (stereo not given)
OUTPUT: -3.83

INPUT: Same thing, different compound: `CCN(C)Cc1cccc(CNC(=O)NCCc2ccccn2)c1`
OUTPUT: 3.33

INPUT: Same thing, different compound: `Cn1cc(N2CCN(c3ccc(C#N)c(Cl)c3)CC2=O)cn1`
OUTPUT: -3.11

INPUT: Same thing, different compound: `O=C1CCC2(CCNCC2)CN1Cc1nnc2ccccn12`
OUTPUT: 8.07

INPUT: Same thing, different compound: Cc1cc(C[S+]([O-])Cc2ccccc2F)on1 (stereo not given)
OUTPUT: 6.4

INPUT: Same thing, different compound: `COc1ccc(Cl)cc1C(=O)N1C[C@H](C(C)C)[C@@H](N)C1`
OUTPUT: 6.24

INPUT: Same thing, different compound: NC(=O)NC(CC(=O)N1CCc2sccc2C1)c1ccccc1F (stereo not given)
OUTPUT: 3.63

INPUT: Same thing, different compound: `O=C(CCc1ccc(Cl)cc1)N[C@@H]1CC[C@@H](O)[C@@H]1O`
OUTPUT: 14.5

INPUT: Same thing, different compound: CCC(=O)NC1CCCN(c2cncc(OCc3ccccc3)n2)C1 (stereo not given)
OUTPUT: 5.23

INPUT: Same thing, different compound: CCc1ccc(CN2CCOC(Cc3cccc(F)c3)C2)nc1 (stereo not given)
OUTPUT: 5.27

INPUT: Same thing, different compound: `CCS(=O)(=O)NCc1nc(C)cc(N2CCOCC2)n1`
OUTPUT: 0.985

INPUT: Same thing, different compound: c1ccc(N2CCC(OCC3CCCCO3)CC2)nc1 (stereo not given)
OUTPUT: 6.76

INPUT: Same thing, different compound: `COc1ncccc1N(C)C(=O)Cn1cc(-c2ccccc2)nn1`
OUTPUT: -1.29

INPUT: Same thing, different compound: `Cc1cc(C)c(C(=O)N(C)CCN(C)C(=O)c2[nH]c(C)cc2C)[nH]1`
OUTPUT: -2.87

INPUT: Same thing, different compound: `O=C(O)c1ccn(-c2cccc(NC(=O)c3ccccc3Cl)c2)n1`
OUTPUT: 0.768

INPUT: Same thing, different compound: CCN(CC)C(=O)CN1CCCC1C(=O)N(C)C (stereo not given)
OUTPUT: -2.41

INPUT: Same thing, different compound: `CN(Cc1nc2ccccc2n1C)C(=O)CCc1cscn1`
OUTPUT: 3.49

INPUT: Same thing, different compound: CCC1(CC)CC(=O)N(CC(O)c2cccc(F)c2)C1=O (stereo not given)
OUTPUT: 12.2

INPUT: Same thing, different compound: CC(Cc1cccc(F)c1)C(=O)NS(=O)(=O)c1ccc2c(c1)OCCO2 (stereo not given)
OUTPUT: 3.32

INPUT: Same thing, different compound: COc1ccccc1CN(C)C(=O)C[S+]([O-])Cc1cc(C)on1 (stereo not given)
OUTPUT: -2.86

INPUT: Same thing, different compound: `CC(C)Oc1ccccc1CNC(=O)N(C)CC(F)F`
OUTPUT: 1.53

INPUT: Same thing, different compound: Cc1occc1C(=O)N1CCCC(C2=Nc3ccccc3S(=O)(=O)N2)C1 (stereo not given)
OUTPUT: 14.4

INPUT: Same thing, different compound: `Fc1ccccc1CN1CCC[C@@H](Cn2nnc(-c3cccs3)n2)C1`
OUTPUT: 5.25

INPUT: Same thing, different compound: `Cc1cnn(CCCNC(=O)NCCS(=O)(=O)Nc2ccccc2)c1`
OUTPUT: 13.3
